- Target System: CLK4 (Homo sapiens, UniProt Q9HAZ1)
- Sequence (Q9HAZ1 whole entry): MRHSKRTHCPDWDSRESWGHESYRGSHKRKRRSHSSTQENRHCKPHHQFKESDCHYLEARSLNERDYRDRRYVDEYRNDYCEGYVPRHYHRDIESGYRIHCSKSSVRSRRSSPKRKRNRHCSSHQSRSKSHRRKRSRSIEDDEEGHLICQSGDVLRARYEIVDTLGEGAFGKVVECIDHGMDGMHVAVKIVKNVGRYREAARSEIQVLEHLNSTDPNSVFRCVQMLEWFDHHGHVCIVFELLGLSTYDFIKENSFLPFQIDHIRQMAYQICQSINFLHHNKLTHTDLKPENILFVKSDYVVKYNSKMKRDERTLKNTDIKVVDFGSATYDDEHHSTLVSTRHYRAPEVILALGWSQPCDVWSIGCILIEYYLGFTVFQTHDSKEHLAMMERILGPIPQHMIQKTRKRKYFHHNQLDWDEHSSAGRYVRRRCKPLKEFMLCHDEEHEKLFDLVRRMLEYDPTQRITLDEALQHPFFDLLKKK
Property: pIC50
Remember the convention: pIC50 equals -log10 of concentration in molar.

Input: Item CN1CCN(c2cc(C(=O)Nc3cc4cc(-c5cnn(C)c5)ccc4cn3)ccn2)CC1 with CLK4 (Homo sapiens, UniProt Q9HAZ1) - pIC50?
Output: 9.00

====

- Tested on: prostate cancer (5 cell lines)
- Test Summary: CellTiter-Glo Viability Assay, prostate cancer
- Type: cell-based
- Experimental Setup: Homo sapiens, PC-3; PC3 cell line; inhibition of cancer cell proliferation; read-out: Prostate cancer EC50 PC3
# pEC50 listing for each entry below
Remember the convention: pEC50 equals -log10 of concentration in molar.

Input: Requested read-out: pEC50. Entry: O=C1COc2cccc(c2)-c2cncc3[nH]c(nc23)-c2n[nH]c3ccc(cc23)-c2cncc(c2)N1 [Compound 56]
Output: 5.47

====

- Test system: haematopoietic & lymphoid tumors (13 cell lines)
- Test Summary: CellTiter-Glo Viability Assay, haematopoietic & lymphoid tumors
- Assay type: cell-based
- Experimental Setup: Homo sapiens; TOLEDO cell line; inhibition of cancer cell proliferation; read-out: Haematopoietic & Lymphoid tumors, EC50 (μM) TOLEDO
Our labelling divides records by EC50 into ranges: band 1: < 0.1 µM; band 2: ≥ 0.1 µM and < 0.4 µM; band 3: ≥ 0.4 µM

Observe how each entry below is paired with its result.
>>> print(df.to_string())
                                  structure  category
0  Cc1n[nH]c2ccc(-c3cncc(N[C@H]4CC[C@@H](N)CC4)n3)cc12    band 2
1  c1cncc(-c2ccc3[nH]nc(-c4cc5c(-c6cccnc6)cncc5[nH]4)c3c2)c1    band 2
2  c1cc2cc(c1)-c1cncc3[nH]c(nc13)-c1n[nH]c3ccc(cc13)-c1cncc(c1)CNC2    band 1
3  Cc1n[nH]c2cc(F)c(-c3cncc(CN4CCNCC4)c3)cc12    band 3
4  CN1CCC(C(=O)Nc2c[nH]nc2-c2nc3c(-c4ccc(F)s4)cccc3[nH]2)CC1    band 1

Input: Please let me know in which category the item O=C(Nc1cncc(-c2ccc3[nH]nc(-c4cc5cnccc5[nH]4)c3c2)c1)C1CCCCC1 belongs.
Output: band 1

Input: Please let me know in which category the item CN1CCN(c2ccc(NC(=O)c3n[nH]c4ccc(-c5cncc(NC(=O)C6CC6)c5)cc34)cn2)CC1 belongs.
Output: band 2

Input: Please let me know in which category the item CN1CCN(c2cc(Nc3ncc4c(-c5ccc6ncccc6c5)c[nH]c4n3)ccn2)CC1 belongs.
Output: band 2

Input: Please let me know in which category the item O=C1CCc2cccc(c2)-c2cncc(c2)NC(=O)c2n[nH]c3ccc(cc23)-c2cncc(c2)CN1 belongs.
Output: band 3

Input: Please let me know in which category the item CN1CCC(Oc2ccc(NC(=O)c3n[nH]cc3/C=C/c3cccnc3)cn2)CC1 belongs.
Output: band 3

Input: Please let me know in which category the item CN1CCC2(CC1)CN(c1cc(C(=O)Nc3cc4cc(-c5cnn(C)c5CO)ccc4cn3)ccn1)C2 belongs.
Output: band 2

Input: Please let me know in which category the item O=C(Nc1ccc(OCCN2CCCC2)cc1)c1n[nH]cc1/C=C/c1cccnc1 belongs.
Output: band 3

Input: Please let me know in which category the item CN1CCN(c2cc(C(=O)Nc3cc4cc(-c5nnc(N(C)C)s5)ccc4cn3)ccn2)CC1 belongs.
Output: band 2

Input: Please let me know in which category the item Cn1cc(-c2ccc3cnc(NC(=O)c4ccc5c(c4)CNCC5)cc3c2)cn1 belongs.
Output: band 2

Input: Please let me know in which category the item O=C1CCc2cccc(c2)-c2cncc3[nH]c(nc23)-c2n[nH]c3ccc(cc23)-c2cncc(c2)N1 belongs.
Output: band 3

Input: Please let me know in which category the item CN1CCCCN(C)c2nccc3[nH]c(nc23)-c2n[nH]c3ccc(cc23)-c2cncc(c2)C1 belongs.
Output: band 1

Every entry's value here was drawn from patent US20220062240A1.
